Recorded values, source patent US20070078263A1.

Target: human LTA4 hydrolase (Homo sapiens, UniProt P09960)
Construct: A human LTA4 hydrolase full-length cDNA clone (NM 000895) was purchased; His tag (6xHis of vector pDEST17); made in house; host or cells: Escherichia coli BL21-AI
Sequence (P09960 1-611): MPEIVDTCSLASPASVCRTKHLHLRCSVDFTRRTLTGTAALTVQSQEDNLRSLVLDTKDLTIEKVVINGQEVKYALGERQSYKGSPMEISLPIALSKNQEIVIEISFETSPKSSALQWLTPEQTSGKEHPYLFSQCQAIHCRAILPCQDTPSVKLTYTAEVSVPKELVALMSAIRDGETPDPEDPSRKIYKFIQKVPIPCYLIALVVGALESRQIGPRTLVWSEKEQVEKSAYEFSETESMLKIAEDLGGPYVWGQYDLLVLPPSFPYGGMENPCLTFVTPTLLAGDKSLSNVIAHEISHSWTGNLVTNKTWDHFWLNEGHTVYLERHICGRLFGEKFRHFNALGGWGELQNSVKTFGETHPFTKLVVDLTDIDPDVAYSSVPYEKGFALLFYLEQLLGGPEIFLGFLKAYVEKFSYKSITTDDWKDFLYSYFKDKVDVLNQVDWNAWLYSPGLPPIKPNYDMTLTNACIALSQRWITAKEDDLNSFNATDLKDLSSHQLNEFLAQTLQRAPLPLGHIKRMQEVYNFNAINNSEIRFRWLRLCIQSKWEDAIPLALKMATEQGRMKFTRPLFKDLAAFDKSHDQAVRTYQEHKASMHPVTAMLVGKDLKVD
Experiment: In vitro assay testing inhibitory activity against purified recombinant human LTA4 hydrolase (LTB4 formed, LC-MS/MS)
Format: biochemical
Details: recombinant human LTA4 hydrolase 200 nM, LTA4 2 μM; read-out: AvgIC50
Counter-ions that a name gives are not always drawn.
PROPERTY MEASURED: IC50

• c1ccc2sc(Cc3ccc(OC[C@H]4CCCN4)cc3)nc2c1 = < 5 µM
• O=C(O)CCCN1CCC[C@H]1COc1ccc(Cc2ccccc2)cc1 = < 5 µM
• O=C(O)CCCN1CCC[C@H]1COc1ccc(Cc2ccc(-c3nccs3)cc2)cc1 [Example 151, hydrochloride salt] = < 5 µM
• O=C(O)CCCN1CCC[C@@H]1COc1ccc(Cc2ccc(-c3ccco3)cc2)cc1 = < 5 µM

* * *

biological target: human LTA4 hydrolase (Homo sapiens, UniProt P09960); construct: A human LTA4 hydrolase full-length cDNA clone (NM 000895) was purchased; His tag (6xHis of vector pDEST17); made in house; host or cells: Escherichia coli BL21-AI; experiment: In vitro assay testing inhibitory activity against purified recombinant human LTA4 hydrolase (LTB4 formed, LC-MS/MS); format: biochemical; details: recombinant human LTA4 hydrolase 200 nM, LTA4 2 μM; read-out: AvgIC50
Counter-ions that a name gives are not always drawn.
PROPERTY MEASURED: IC50

• FC(F)(F)c1cccc(COc2ccc(OC[C@H]3CCCN3)cc2)c1 = 5 to 20 µM
• O=C(O)CCCN1CCC[C@@H]1COc1ccc(Oc2ccc(C(F)(F)F)cc2)cc1 [Example 30, sodium salt] = < 5 µM
• O=C(O)CCCN1CCC[C@H]1COc1ccc(Cc2ccc(-c3cccs3)cc2)cc1 = < 5 µM
• Clc1ccc(COc2ccc(OC[C@H]3CCCN3)cc2)cc1 = < 5 µM
• c1ccc2sc(Oc3ccc(OC[C@H]4CCCN4)cc3)nc2c1 = < 5 µM
• c1ccc(Cc2ccc(-c3ccc(OC[C@H]4CCCN4)cc3)s2)cc1 = < 5 µM
• O=C(O)CCCN1CCC[C@@H]1COc1ccc(Cc2ccc(-c3cccs3)cc2)cc1 = < 5 µM
• c1ccc(Cc2ccc(OC[C@H]3CCCN3Cc3ccncc3)cc2)cc1 = < 5 µM
• Clc1ccc(-c2ccc(Cc3ccc(OC[C@H]4CCCN4)cc3)cc2)s1 = < 5 µM
• c1cc(OC[C@@H]2CCCN2)ccc1Cc1ccc(N2CCC2)cc1 = 5 to 20 µM
• Clc1cc2c(cc1COc1ccc(OC[C@H]3CCCN3)cc1)OCO2 = 20 to 100 µM
• c1coc(-c2ccc(Oc3ccc(OC[C@H]4CCCN4)cc3)cc2)n1 [Example 148, hydrochloride salt] = < 5 µM
• CC(=O)NCCCN1CCC[C@H]1COc1ccc(Oc2ccc(Cl)cc2)cc1 [Example 38, HCl] = < 5 µM
• O=C(O)CN1CCC[C@H]1COc1ccc(Cc2ccccc2)cc1 [Example 36, TFA salt] = < 5 µM
• OC(c1ccc(OC[C@H]2CCCN2)cc1)c1ccc(-c2ccsc2)cc1 (stereo partly shown) = 5 to 20 µM
• Cc1ccc(Oc2ccc(OC[C@H]3CCCN3)cc2)cc1 [Example 14, hydrochloride] = < 5 µM
• NC(=O)CCCN1CCC[C@H]1COc1ccc(Oc2ccc(Cl)cc2)cc1 = < 5 µM
• O=C(O)CN1CCC[C@@H]1COc1ccc(Oc2ccc(Cl)cc2)cc1 [Example 18, hydrochloride] = < 5 µM
• O=C(O)CCCN1CCC[C@@H]1COCc1ccc(Cc2ccccc2)cc1 [Example 157, hydrochloride salt] = < 5 µM
• c1ccc2[nH]c(Oc3ccc(OC[C@H]4CCCN4)cc3)nc2c1 = < 5 µM
• Brc1ccc(Cc2ccc(OC[C@H]3CCCN3)cc2)cc1 = < 5 µM
• O=C(O)CCCN1CCC[C@H]1COc1ccc(Cc2ccc(-c3ccccc3)s2)cc1 = < 5 µM
• Clc1ccc(Cc2ccc(OC[C@@H]3CCCN3)cc2)cc1 [Example 64, hydrochloride] = < 5 µM
• O=C(O)CCN1CCC[C@H]1COc1ccc(Oc2ccc(C(F)(F)F)cc2)cc1 [Example 26, sodium salt] = < 5 µM
• N#Cc1ccc(Oc2ccc(OC[C@H]3CCCN3)cc2)cc1 [Example 15, hydrochloride] = < 5 µM
• Fc1ccc(Oc2ccc(OC[C@H]3CCCN3)cc2)cc1 = < 5 µM
• O=C(O)CCCN1CCC[C@@H]1COc1ccc(Oc2ccc(-n3cccn3)cc2)cc1 = 5 to 20 µM
• c1ccc(Cc2ccc(OC[C@@H]3CCCN3)nc2)cc1 [Example 142, hydrochloride salt] = < 5 µM
• c1ccc(Oc2ccc(OC[C@@H]3CCCCN3)cc2)cc1 [Example 52, hydrochloride] = < 5 µM
• c1ncc(-c2ccc(Oc3ccc(OC[C@H]4CCCN4)cc3)cc2)o1 = 5 to 20 µM
• c1ccc(CO[C@H]2CN[C@H](COc3ccc(Oc4ccccc4)cc3)C2)cc1 = 5 to 20 µM
• c1csc(-c2ccc(Oc3ccc(OC[C@H]4CCCN4)cc3)cc2)n1 [Example 146, hydrochloride salt] = < 5 µM
• O=C(Cc1ccccc1)c1ccc(OC[C@H]2CCCN2)cc1 = 5 to 20 µM
• COC(=O)CCCN1CCC[C@@H]1COc1ccc(Cc2ccccc2)cc1 = < 5 µM
• O=C(O)CN1CCCC[C@H]1COc1ccc(Oc2ccc(Cl)cc2)cc1 [Example 62, hydrochloride] = < 5 µM
• N#CC1(c2ccc(Oc3ccc(OC[C@H]4CCCN4)cc3)cc2)CC1 = < 5 µM
• O=C(c1ccccc1)c1ccc(OC[C@H]2CCCN2)cc1 = 5 to 20 µM

* * *

Measured pIC50, listed per entry for reference.
target: human LTA4 hydrolase (Homo sapiens, UniProt P09960); construct: A human LTA4 hydrolase full-length cDNA clone (NM 000895) was purchased; His tag (6xHis of vector pDEST17); made in house; host or cells: Escherichia coli BL21-AI; test: In vitro assay testing inhibitory activity against purified recombinant human LTA4 hydrolase (LTB4 formed, LC-MS/MS); type: biochemical; conditions: recombinant human LTA4 hydrolase 200 nM, LTA4 2 μM; read-out: AvgIC50;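 note: 200 nM enzyme preincubated 10 min at room temperature with serial inhibitor dilutions in pH 8.0 Tris buffer with BSA and 10% DMSO, then 2 µM LTA4 added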
pIC50: −log10 of the molar value. Counter-ions that a name gives are not always drawn.
PROPERTY MEASURED: pIC50

* O=C(O)CCN1CCC[C@@H]1COc1ccc(Cc2ccccc2)cc1 [Example 9, hydrochloride] | > 5.30
* c1ccc(Oc2ccc(SC[C@H]3CCCN3)cc2)cc1 [Example 43] | > 5.30
* c1ccc(-c2ccc(Oc3ccc(OC[C@H]4CCCN4)cc3)cc2)cc1 [Example 12, hydrochloride] | > 5.30
* COC(=O)CCN1CCC[C@@H]1COc1ccc(Cc2ccccc2)cc1 [Example 7] | > 5.30
* c1ccc(CCc2ccc(OC[C@H]3CCCN3)cc2)cc1 [Example 135] | 4.70 to 5.30
